Assay System: prolyl endopeptidase (Bos taurus)
Construct: prolyl endopeptidase which was purified from bovine brain; from tissue; host or cells: bovine brain (purified enzyme)
Sequence (Q9XTA2 whole entry): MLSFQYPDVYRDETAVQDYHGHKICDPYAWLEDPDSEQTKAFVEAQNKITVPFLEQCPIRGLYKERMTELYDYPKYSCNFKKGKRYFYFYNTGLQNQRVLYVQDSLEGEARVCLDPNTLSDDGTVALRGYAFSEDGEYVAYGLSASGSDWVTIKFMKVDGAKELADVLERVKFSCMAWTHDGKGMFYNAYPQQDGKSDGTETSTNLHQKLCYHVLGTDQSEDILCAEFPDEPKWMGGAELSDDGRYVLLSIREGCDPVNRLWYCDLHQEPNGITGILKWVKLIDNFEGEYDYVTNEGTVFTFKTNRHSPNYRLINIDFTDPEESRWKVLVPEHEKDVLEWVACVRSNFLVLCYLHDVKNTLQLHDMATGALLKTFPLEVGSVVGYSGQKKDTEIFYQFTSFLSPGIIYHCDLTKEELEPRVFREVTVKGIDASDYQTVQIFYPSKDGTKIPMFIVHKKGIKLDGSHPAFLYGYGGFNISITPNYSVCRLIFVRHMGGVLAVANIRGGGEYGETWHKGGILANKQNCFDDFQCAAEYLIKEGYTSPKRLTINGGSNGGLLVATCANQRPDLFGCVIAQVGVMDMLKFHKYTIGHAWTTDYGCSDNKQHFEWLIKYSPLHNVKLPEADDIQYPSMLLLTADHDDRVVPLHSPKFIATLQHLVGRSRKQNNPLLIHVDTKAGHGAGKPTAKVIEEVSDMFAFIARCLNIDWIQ
Test Name: Prolyl endopeptidase inhibitory activity in vitro
Assay type: biochemical
Condition Context: enzyme purified from bovine brain, pH 7.5, 37° C., substrate N-benzyloxycarbonyl-glycyl-prolyl-p-nitroanilide, read-out: Concentration for 50% inhibition IC50
Quantity Kind: IC50 (nM)
Number only, in nM; omit the unit.

CCOC(=O)C(=O)[C@@H]1CCCN1C(=O)CCC(=O)NCc1ccc(Cl)cc1Cl [2 (l)] :: 1.8

// field: IC50; key: CN(Cc1ccccc1)C(=O)CCC(=O)N1CCC[C@H]1C1OCCO1 [Example 19] ; value = 14000

CCOC(=O)C(=O)[C@@H]1CCCN1C(=O)CCC(=O)N(Cc1ccccc1)c1ccccc1 [2 (g)] has a reported IC50 of 1.7

# molecule CCOC(=O)C(=O)[C@@H]1CCCN1C(=O)C(CCCCCc1ccccc1)C(C)C (mixture of isomers) [2 (h)] ; its IC50 = 17

So for CN(Cc1ccccc1)C(=O)CCC(=O)N1CCC[C@H]1C(=O)C(F)(F)F [Example 9] , the logged IC50 turned out to be 23

Value of IC50 reported for the molecule CCOC(=O)C(=O)[C@@H]1CCCN1C(=O)CCC(=O)NC1c2ccccc2-c2ccccc21 [2 (b)] is 1.8

According to the records, this molecule CCOC(=O)C(F)(F)C(=O)[C@@H]1CCCN1C(=O)CCC(=O)N(C)Cc1ccccc1 [Example 13] displays IC50 of 100

Lab book: IC50 of CCOC(=O)C(=O)[C@@H]1CCCN1C(=O)CCC(=O)N(Cc1ccc(C(F)(F)F)cc1)c1ccccc1 [2 (d)] noted as 0.85

src = patent US5401760A
